Where these numbers come from: patent US5578643A

# Procedure Text: Survival of mice (percent survival over 15 days) after doxorubicin, with or without prior prostaglandin
# Measurement Setup: mouse, in vivo, ip, 0.5 mg
Property: survival at 360 h

Query: If you can, please state the reported survival at 360 h value of COc1cccc2c1C(=O)c1c(O)c3c(c(O)c1C2=O)C[C@@](O)(C(=O)CO)C[C@@H]3O[C@H]1C[C@H](N)[C@H](O)[C@H](C)O1 [DOX, doxorubicin] .
Reply: ~25%

* * *

# Tested on: hair medullary cells
# Procedure Text: Number of hair medullary cells four days after a single dose of chemotherapeutic agent, with or without misoprostol
# Assay type: in vivo, CF1 mice
# Measurement Setup: 4 days after single IP dose: DOX 0.3, CTX 1, VP-16-213 0.3, ARA-C 8, HU 10, 5 FU 1.0, Methotrexate 0.2, Bleomycin 0.05, Mitomycin C 0.01, Cisplatin 0.25, Carboplatin 1.0, Taxol 0.6 mg; untreated control 51.4 ± 0.6
# Method: FIG. 13 is a representation of photographs of shafts of hair showing a single line of medullary cells in control mice (Panel A) and in mice 4 days after they were given a single dose of 0.3 mg of VP-16-213 (Panel B). Number of Hair Medullary Cells as a Measure of Protection from Injury caused by Chemotherapeutic Agents. The shafts of hair in CF1 mice contain usually a single line of about 50±1 medullary cells. […]
Property: Number of Medullar Cells ± 1 SEM, chemotherapeutic agent IP alone
Response field accepts a number only; no unit should be typed.

Worked examples follow.
N.N.O=C([O-])C1(C(=O)[O-])CCC1.[Pt+2] : 37.8
COc1cccc2c1C(=O)c1c(O)c3c(c(O)c1C2=O)C[C@@](O)(C(=O)CO)C[C@@H]3O[C@H]1C[C@H](N)[C@H](O)[C@H](C)O1 : 18.3
N.N.[Cl][Pt][Cl] [Cisplatin, cisplatin] : 25.9

Query: If you can, please state the reported Number of Medullar Cells ± 1 SEM, chemotherapeutic agent IP alone value of O=P1(N(CCCl)CCCl)NCCCO1 (stereo not shown) .
Reply: 22.1
